- assay_method_text: Isothermal titration calorimetry: critical aggregation concentration and thermodynamics of aggregation
- Format: physicochemical
- experimental_context: Table 1
- Description: Isothermal titration calorimetry (ITC) was used to determine the critical aggregation concentration (CAC) and the thermodynamic parameters at 37° C. associated with aggregate formation for each double-tailed amphiphile for the M-P and M-1 series, as shown in Table 1. A Nano ITC was used to measure the heat change associated with the deaggregation of amphiphiles via power compensation. […] In FIG. 6, inset, CAC is determined by calculating the first derivative the heat curve. […]
experimental_endpoint: −TΔSagg term (sign, in words)

1) CCCCCCCCCCCC[N+](C)(C)Cc1cc(C[n+]2ccccc2)cc(C[N+](C)(C)CCCCCCCCCCCC)c1.[Br-].[Br-].[Br-] :: negative
2) CCCCCCCCCCCCCCCC[N+](C)(C)Cc1cc(C[N+](C)(C)C)cc(C[N+](C)(C)CCCCCCCCCCCCCCCC)c1.[Br-].[Br-].[Br-] :: positive
3) CCCCCCCCCC[N+](C)(C)Cc1cc(C[n+]2ccccc2)cc(C[N+](C)(C)CCCCCCCCCC)c1.[Br-].[Br-].[Br-] :: negative
4) CCCCCCCCCCCCCC[N+](C)(C)Cc1cc(C[N+](C)(C)C)cc(C[N+](C)(C)CCCCCCCCCCCCCC)c1.[Br-].[Br-].[Br-] :: positive
5) CCCCCCCCCC[N+](C)(C)Cc1cc(C[N+](C)(C)C)cc(C[N+](C)(C)CCCCCCCCCC)c1.[Br-].[Br-].[Br-] :: negative
6) CCCCCCCCCCCCCCCC[N+](C)(C)Cc1cc(C[n+]2ccccc2)cc(C[N+](C)(C)CCCCCCCCCCCCCCCC)c1.[Br-].[Br-].[Br-] :: positive
7) CCCCCCCCCCCCCC[N+](C)(C)Cc1cc(C[n+]2ccccc2)cc(C[N+](C)(C)CCCCCCCCCCCCCC)c1.[Br-].[Br-].[Br-] :: positive
8) CCCCCCCCCCCC[N+](C)(C)Cc1cc(C[N+](C)(C)C)cc(C[N+](C)(C)CCCCCCCCCCCC)c1.[Br-].[Br-].[Br-] :: negative

---

- Tested on: Staphylococcus aureus
- assay_method_text: Minimum inhibitory concentration, S. aureus
- Format: cell-based, Staphylococcus aureus subsp. aureus ATCC 29213
- experimental_context: Mueller-Hinton Broth, 37° C., 72 h
- Description: The MIC values of all compounds from both double-tailed series were determined for four Gram-positive (Staphylococcus aureus, Enterococcus faecalis, Streptococcus agalactiae, and Bacillus cereus) and two Gram-negative (Escherichia coli and Pseudomonas aeruginosa) strains, which are shown in Table 3. […]
experimental_endpoint: MIC S. aureus (G+) (µM)

1. CCCCCCCCCCCCCCCC[N+](C)(C)Cc1cc(C[N+](C)(C)C)cc(C[N+](C)(C)CCCCCCCCCCCCCCCC)c1.[Br-].[Br-].[Br-] :: 16
2. CCCCCCCCCCCCCCCC[N+](C)(C)Cc1cc(C[N+](C)(C)C)cc(C[N+](C)(C)C)c1.[Br-].[Br-].[Br-] :: 31
3. CCCCCCCCCC[N+](C)(C)Cc1cc(C[n+]2ccccc2)cc(C[N+](C)(C)CCCCCCCCCC)c1.[Br-].[Br-].[Br-] :: 2
4. CCCCCCCCCCCC[N+](C)(C)Cc1cc(C[N+](C)(C)C)cc(C[N+](C)(C)C)c1.[Br-].[Br-].[Br-] :: 63
5. CCCCCCCCCCCC[N+](C)(C)Cc1cc(C[n+]2ccccc2)cc(C[N+](C)(C)CCCCCCCCCCCC)c1.[Br-].[Br-].[Br-] :: 2

Ref: patent US10905118B2
